- assayRemarks: Ratio of unbound drug level in brain to plasma in Hartley guinea pig at 100 mg/kg, po measured at 3 hrs
- Type: ADME, organism-based, Cavia porcellus
- Parameters: dose 100 mg/kg, route oral
- conditionNotes: brain and plasma (unbound), read-out: K(p,uu,brain)

inputSmiles	Kp uu at 3 h
CN1C(=O)[C@]2(N=C1N)c1cc(-c3cccnc3F)ccc1O[C@H]1CCOC[C@@H]12	1.3

###

- assayRemarks: Drug uptake in cynomolgus monkey CSF at 0.5 mg/kg, iv and 100 mg/kg, po measured at 2 hrs
- Assay type: ADME, organism-based, Macaca fascicularis, Cerebrospinal fluid
- conditionNotes: read-out: Drug uptake
metricName: concentration at 2 h (nM)

inputSmiles	metricName	unitAnnotation	observedValue
CN1C(=O)[C@]2(N=C1N)c1cc(-c3cccnc3F)ccc1O[C@H]1CCOC[C@@H]12	concentration at 2 h	nM	110
